// reported ELISA PD-L1 Fc (RSU) per item
Molecular target: T1, recombinant biotinylated PD-L1 (rhPD-L1/Fc Chimera, R&D Systems 156-B7) (human, UniProt Q9NZQ7 19-238, biotinylated (sites not given))
T1 construct: Bought Fc chimera; also called human PD-L1
T1 sequence (Q9NZQ7 19-238, change not shown): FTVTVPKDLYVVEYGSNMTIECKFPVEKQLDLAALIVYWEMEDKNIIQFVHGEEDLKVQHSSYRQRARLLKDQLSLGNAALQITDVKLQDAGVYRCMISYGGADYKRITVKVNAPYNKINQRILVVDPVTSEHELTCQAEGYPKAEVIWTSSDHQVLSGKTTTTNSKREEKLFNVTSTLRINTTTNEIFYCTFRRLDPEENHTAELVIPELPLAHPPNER
Experiment: ELISA, lysate on plate-bound antigen
The response must be a number in RSU with no trailing unit.

Give ELISA PD-L1 Fc (RSU) for ISOP121BR5P1D3 (designed binder, not shown: small tags and cut ends, FN3 domain; E. coli lysate in the ELISA) LPAPKNLVVSRVTEDSARLSWYEDNTERFDSFLIQYQESEKVGEAIVLTVPGSERSYDLTGLKPGTEYTVSIYGVYIRVQVLWFSNPLSAIFTT
75800

Give ELISA PD-L1 Fc (RSU) for ISOP194BR9P1F7 (designed binder, not shown: small tags and cut ends, FN3 domain; E. coli lysate in the ELISA) LPAPKNLVVSRVTEDSARLSWFNADEEYFDSFLIQYQESEKVGEAIVLTVPGSERSYDLTGLKPGTEYTVSIYGVYTRGRYEWRESNPLSAIFTT
1.52e+07

// data source = patent US20180162928A1
